test system: Substance-P receptor (Oryctolagus cuniculus); assay: Binding constant towards tachykinin receptor 1 using ASMSP as agonist on rabbit pulmonary artery tissues.
Each entry below carries its reported pKB.

Compound: C#Cc1cc(C(=O)N(C)C[C@@H](CCN2CCC(c3ccccc3[S+](C)[O-])CC2)c2ccc(Cl)c(Cl)c2)c2ccccc2c1 (some centres undefined)
Experimental Target: Substance-P receptor (Oryctolagus cuniculus)
pKB: 7.71
//
Compound: CN(C[C@@H](CCN1CCC(c2ccccc2[S+](C)[O-])CC1)c1ccc(Cl)c(Cl)c1)C(=O)c1cc(F)cc2ccccc12 (some centres undefined)
Experimental Target: Substance-P receptor (Oryctolagus cuniculus)
pKB: 7.9
//
Compound: C=C(C)c1cc(C(=O)N(C)C[C@@H](CCN2CCC(c3ccccc3[S+](C)[O-])CC2)c2ccc(Cl)c(Cl)c2)c2ccccc2c1 (some centres undefined)
Experimental Target: Substance-P receptor (Oryctolagus cuniculus)
pKB: 7.24
//
Compound: CN(C[C@@H](CCN1CCC(c2ccccc2[S+](C)[O-])CC1)c1ccc(Cl)c(Cl)c1)C(=O)c1cc(Cl)cc2ccccc12 (some centres undefined)
Experimental Target: Substance-P receptor (Oryctolagus cuniculus)
pKB: 7.15

# credit: ChEMBL document CHEMBL1133817
